All figures here come from patent US12673946B2.

Target: human TRPV4 (Homo sapiens, UniProt Q9HBA0)
Construct: host or cells: tetracycline-inducible Flp-In T-REx 293 cells
Sequence (Q9HBA0 whole entry): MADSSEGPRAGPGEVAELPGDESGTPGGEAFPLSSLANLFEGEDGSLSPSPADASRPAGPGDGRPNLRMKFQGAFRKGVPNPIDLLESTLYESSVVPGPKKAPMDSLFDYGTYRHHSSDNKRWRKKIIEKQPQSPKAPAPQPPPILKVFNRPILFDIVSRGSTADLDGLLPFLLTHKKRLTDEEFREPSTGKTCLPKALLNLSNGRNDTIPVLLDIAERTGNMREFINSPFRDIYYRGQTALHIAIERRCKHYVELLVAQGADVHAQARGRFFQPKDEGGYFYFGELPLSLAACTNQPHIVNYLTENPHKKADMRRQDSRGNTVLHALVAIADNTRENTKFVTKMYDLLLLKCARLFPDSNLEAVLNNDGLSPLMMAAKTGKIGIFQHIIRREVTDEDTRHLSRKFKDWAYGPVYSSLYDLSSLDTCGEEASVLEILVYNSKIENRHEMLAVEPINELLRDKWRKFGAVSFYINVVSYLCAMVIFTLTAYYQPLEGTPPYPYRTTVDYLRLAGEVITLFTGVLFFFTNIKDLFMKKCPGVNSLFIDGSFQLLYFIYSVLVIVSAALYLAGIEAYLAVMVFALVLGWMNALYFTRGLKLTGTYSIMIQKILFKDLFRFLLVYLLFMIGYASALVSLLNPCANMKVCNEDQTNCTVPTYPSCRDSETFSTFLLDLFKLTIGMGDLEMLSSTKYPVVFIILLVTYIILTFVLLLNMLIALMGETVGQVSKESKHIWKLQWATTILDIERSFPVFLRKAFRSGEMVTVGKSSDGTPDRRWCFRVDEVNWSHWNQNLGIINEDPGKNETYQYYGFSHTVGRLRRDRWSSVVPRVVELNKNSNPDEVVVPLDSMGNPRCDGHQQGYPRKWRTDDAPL
Test: Hypotonicity-induced Ca2+ influx (Fluo-4, FDSS)
Assay type: cell-based
Settings: Flp-In T-REx 293 cells stably expressing human TRPV4, compounds listed by potency bin (<10 nM Tables 96-1/96-2, <3 nM Table 97)
pIC50: −log10 of the molar value.
metric: pIC50

| compound | system-name | pIC50 |
| --- | --- | --- |
| O=C([C@H](O)c1cccc(-c2cccc(C(F)(F)F)c2)c1)N1CCCc2nc(C3(c4cc(-c5ccccc5)cs4)CC3)[nH]c(=O)c2C1 [54-14] | human TRPV4 (Homo sapiens, UniProt Q9HBA0) | > 8.00 |

pIC50 for CN1CCc2cc(-c3cccc(C4(c5nc6c(c(=O)[nH]5)CN(C(=O)[C@H](O)c5cccc(C(F)(F)F)c5)CCC6)CC4)c3)ccc21 [42-50] is > 8.00

compound CCc1csc(C2(c3nc4c(c(=O)[nH]3)CN(C(=O)[C@H](O)c3cccc(C(F)(F)F)c3)CC4)CC2)c1 [15-5] , pIC50 observed: > 8.00

// field: pIC50; key: Cc1cc(Cl)cc(-c2cccc(C(O)C(=O)N3CCc4nc(C5(c6ccccc6)CC5)[nH]c(=O)c4C3)c2)c1 (stereo not shown) [44-16] ; value = > 8.00

Recorded result, N#Cc1cc(Cl)cc(-c2cccc(CC(=O)N3CCCc4nc(C5(c6ccccc6)CC5)[nH]c(=O)c4C3)c2)c1 [17-138] , pIC50: > 8.00

Input Cc1ccccc1-c1cccc(C2(c3nc4c(c(=O)[nH]3)CN(C(=O)[C@H](O)c3cccc(C(F)(F)F)c3)CCC4)CC2)c1 [42-60] . Output pIC50: > 8.00

pIC50 reading for O=C(/C=C/c1cccc(C(F)(F)F)c1)N1CCCc2nc(C3(c4cccc(Cl)c4)CC3)[nH]c(=O)c2C1 [17-117] : > 8.00
